test: Pharmacokinetics from plasma levels after oral, rectal and intramuscular administration in rabbits; format: in vivo, rabbit; settings: rabbit, plasma, im, 80 mg/kg, INTRAMUSCOLAR 80 mg/kg, ± E.S.M.; read-out: t1/2β
quantity kind: half-life (h)
Value expressed in h; do not type the unit.

### Prompt What measured half-life goes with C=CCOc1ccc(CC(=O)O)cc1Cl [Alclofenac-Lysine, lysine 4-allyloxy-3-chlorophenylacetate] ?
### Response 23.4

---

Assay: Pharmacokinetics after i.v. injection in rabbits
Format: in vivo, rabbit
Conditions: rabbit, plasma, iv, 90 mg/kg, i.v. 90 mg/kg (as acid); individual, in order Rabbit I, II, III, IV; read-out: √1
Description: The following pharmacological experimentation was carried out in order to estimate the comparative absorption and bioavailability through various administration routes in rabbits of Alclofenac acid and its lysine salt.
quantity kind: Vd (L/kg)
Value expressed in L/kg; do not type the unit.

### Prompt What measured Vd goes with C=CCOc1ccc(CC(=O)O)cc1Cl [Alclofenac-Lysine, lysine 4-allyloxy-3-chlorophenylacetate] ?
### Response 0.205

---

test: Pharmacokinetics after i.v. injection in rabbits; assay type: in vivo, rabbit; conditions: rabbit, plasma, iv, 90 mg/kg, i.v. 90 mg/kg (as acid); individual, in order Rabbit I, II, III, IV; read-out: Vdβ
quantity kind: Vd (L/kg)
Value expressed in L/kg; do not type the unit.

### Prompt What measured Vd goes with C=CCOc1ccc(CC(=O)O)cc1Cl [Alclofenac-Lysine, lysine 4-allyloxy-3-chlorophenylacetate] ?
### Response 0.33

---

assay: Pharmacokinetics from plasma levels after oral, rectal and intramuscular administration in rabbits; type: in vivo, rabbit; settings: rabbit, plasma, im, 80 mg/kg, INTRAMUSCOLAR 80 mg/kg, ± E.S.M.; read-out: Vdβ
quantity kind: Vd/F (L/kg)
Value expressed in L/kg; do not type the unit.

### Prompt What measured Vd/F goes with C=CCOc1ccc(CC(=O)O)cc1Cl [Alclofenac-Lysine, lysine 4-allyloxy-3-chlorophenylacetate] ?
### Response 0.607
